tested on: Hepatotoxicity; experiment: FDA HLAED, liver enzyme composite activity; details: human
quantity kind: Composite Activity - Marginal

Sample records with Composite Activity - Marginal:
| compound | Composite Activity - Marginal |
| --- | --- |
| Cc1ccnc2c1NC(=O)c1cccnc1N2C1CC1 [NEVIRAPINE] | 0 |
| C[C@H](CCC(=O)O)[C@H]1CC[C@H]2[C@@H]3[C@@H](O)C[C@@H]4C[C@H](O)CC[C@]4(C)[C@H]3CC[C@]12C [URSODIOL] | 0 |
| CS(=O)(=O)OCCCCOS(C)(=O)=O [BUSULFAN] | 0 |
| CC(Cc1ccc(O)c(O)c1)C(C)Cc1ccc(O)c(O)c1 (centres undefined) [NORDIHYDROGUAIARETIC ACID] | 0 |
| COc1cc(C(=O)NS(=O)(=O)c2ccccc2C)ccc1Cc1cn(C)c2ccc(NC(=O)OC3CCCC3)cc12 [ZAFIRLUKAST] | 1 |

Query: GET /values?readout=Composite Activity - Marginal&item= CCCCC(C)(O)C/C=C/[C@H]1[C@H](O)CC(=O)[C@@H]1CCCCCCC(=O)OC (some centres undefined) [MISOPROSTOL]
Response: 0

Query: GET /values?readout=Composite Activity - Marginal&item= O=c1[nH]cc(F)c(=O)[nH]1 [FLUOROURACIL]
Response: 1

Query: GET /values?readout=Composite Activity - Marginal&item= C[C@@H]1C[C@H]2[C@@H]3CCC4=CC(=O)C=C[C@]4(C)[C@@]3(Cl)[C@@H](O)C[C@]2(C)[C@@]1(O)C(=O)CCl [MOMETASONE]
Response: 0

Query: GET /values?readout=Composite Activity - Marginal&item= CCC1(c2ccc(N)cc2)CCC(=O)NC1=O (centres undefined) [AMINOGLUTETHIMIDE]
Response: 0

====

test system: Hepatotoxicity; assay: FDA HLAED, liver enzyme composite activity; conditions: human
quantity kind: Composite Activity - Score

| molecule | Composite Activity - Score |
| --- | --- |
| Cc1nnc2n1-c1ccc(Cl)cc1C(c1ccccc1Cl)=NC2 | Inactive |
| CCCCc1nc(Cl)c(CO)n1Cc1ccc(-c2ccccc2-c2nn[nH]n2)cc1 | Inactive |
| CN1CC[C@]23c4c5ccc(O)c4O[C@H]2C(=O)CC[C@H]3[C@H]1C5 [HYDROMORPHONE] | Inactive |
| CC(=O)[C@]1(O)Cc2c(O)c3c(c(O)c2[C@@H](O[C@H]2C[C@H](N)[C@H](O)[C@H](C)O2)C1)C(=O)c1ccccc1C3=O | Inactive |
| Nc1cc(N2CCCCC2)nc(N)[n+]1[O-] | Inactive |

Query: GET /values?readout=Composite Activity - Score&item= CCOC(=O)OC(C)OC(=O)[C@@H]1N2C(=O)[C@@H](NC(=O)[C@H](N)c3ccccc3)[C@H]2SC1(C)C (stereo partly specified)
Response: Inactive

Query: GET /values?readout=Composite Activity - Score&item= C[C@@H](O)[C@H]1C(=O)N2C(C(=O)O)=C(S[C@@H]3CN[C@H](C(=O)N(C)C)C3)[C@H](C)[C@H]12
Response: Active

Query: GET /values?readout=Composite Activity - Score&item= CNC(=C[N+](=O)[O-])NCCSCc1csc(CN(C)C)n1
Response: Inactive

Query: GET /values?readout=Composite Activity - Score&item= CC(C)OC(=O)CCC/C=C\C[C@@H]1[C@@H](CC[C@@H](O)CCc2ccccc2)[C@H](O)C[C@@H]1O
Response: Inactive

Query: GET /values?readout=Composite Activity - Score&item= O=C1CC[C@@]2(O)[C@H]3Cc4ccc(O)c5c4[C@@]2(CCN3CC2CC2)[C@H]1O5 [NALTREXONE]
Response: Inactive

Query: GET /values?readout=Composite Activity - Score&item= COc1ccc([C@@H]2Sc3ccccc3N(CCN(C)C)C(=O)[C@@H]2OC(C)=O)cc1
Response: Inactive

Query: GET /values?readout=Composite Activity - Score&item= C[C@@H]1CN(c2c(F)c(N)c3c(=O)c(C(=O)O)cn(C4CC4)c3c2F)C[C@H](C)N1
Response: Inactive

====

system: Hepatotoxicity; assay: FDA HLAED, serum glutamic oxaloacetic transaminase (SGOT) increase; conditions: human
# key: entry, value: SGOT Increase - Index Value
Could you keep your reply to the number by itself?

Sample records with SGOT Increase - Index Value:
| molecule | SGOT Increase - Index Value |
| --- | --- |
| CCC(=O)O[C@H]1[C@H](O[C@@H]2[C@@H](C)[C@H](O[C@H]3C[C@@](C)(OC)[C@@H](O)[C@H](C)O3)[C@@H](C)C(=O)O[C@H](CC)[C@@](C)(O)[C@H](O)[C@@H](C)C(=O)[C@H](C)C[C@@]2(C)O)O[C@H](C)C[C@@H]1N(C)C [ERYTHROMYCIN PROPIONATE] | 7.9 |
| CC1=C(CC(=O)O)c2cc(F)ccc2/C1=C\c1ccc([S+](C)[O-])cc1 (centres undefined) | 0 |
| C=C1/C(=C\C=C2/CCC[C@]3(C)[C@@H]([C@H](C)/C=C/[C@@H](O)C4CC4)CC[C@@H]23)C[C@@H](O)C[C@@H]1O | 0.3 |
| COc1cc(N)c(Cl)cc1C(=O)NC1CCN(CCCOc2ccc(F)cc2)CC1OC (centres undefined) [CISAPRIDE] | 0.3 |
| CC(C)c1ccc2oc3nc(N)c(C(=O)O)cc3c(=O)c2c1 | 0 |

Query: GET /values?readout=SGOT Increase - Index Value&item= C[C@@H]1CN(c2c(F)c(N)c3c(=O)c(C(=O)O)cn(C4CC4)c3c2F)C[C@H](C)N1
Response: 0

Query: GET /values?readout=SGOT Increase - Index Value&item= Nc1nc(/C(=C/CC(=O)O)C(=O)N[C@@H]2C(=O)N3C(C(=O)O)=CCS[C@H]23)cs1
Response: 0

Query: GET /values?readout=SGOT Increase - Index Value&item= O=C(O)C1=C(CSc2nnnn2CS(=O)(=O)O)CS[C@@H]2[C@H](NC(=O)[C@H](O)c3ccccc3)C(=O)N12
Response: 0

Query: GET /values?readout=SGOT Increase - Index Value&item= O=C1C(O)=C([C@H]2CC[C@H](c3ccc(Cl)cc3)CC2)C(=O)c2ccccc21
Response: 18.2

====

system: Hepatotoxicity; experiment: FDA HLAED, alkaline phosphatase increase; conditions: human
quantity kind: Alkaline Phosphatase Increase - Number of Reports

Sample records with Alkaline Phosphatase Increase - Number of Reports:
| compound | result |
| --- | --- |
| CC(C)c1c(C(=O)Nc2ccccc2)c(-c2ccccc2)c(-c2ccc(F)cc2)n1CC[C@@H](O)C[C@@H](O)CC(=O)O | >= 4 |
| Cc1nc2n(c(=O)c1CCN1CCC(c3noc4cc(F)ccc34)CC1)CCCC2 | >= 4 |
| N#Cc1cc(NC(=O)C(=O)O)c(Cl)c(NC(=O)C(=O)O)c1 [LODOXAMIDE] | < 4 |
| FC(F)OC(Cl)C(F)(F)F (configuration not stated) | < 4 |
| CNS(=O)(=O)Cc1ccc2[nH]cc(CCN(C)C)c2c1 | >= 4 |
| C[C@H]1O[C@H](O[C@H]2[C@H](O)[C@@H](O)[C@@H](O[C@H]3[C@H](O)[C@@H](O)C(O)O[C@@H]3CO)O[C@@H]2CO)[C@H](O)[C@@H](O)[C@@H]1N[C@H]1C=C(CO)[C@@H](O)[C@H](O)[C@H]1O (some centres not stated) | < 4 |

# ---- query compound ----
Query: GET /values?readout=Alkaline Phosphatase Increase - Number of Reports&item= C[C@H](CS)C(=O)N1CCC[C@H]1C(=O)O
Response: >= 4

====

system: Hepatotoxicity; experiment: FDA HLAED, serum glutamic pyruvic transaminase (SGPT) increase; conditions: human

| compound | SGPT Increase - Number of Reports |
| --- | --- |
| O=C(NCC1CCCCN1)c1cc(OCC(F)(F)F)ccc1OCC(F)(F)F (centres undefined) [FLECAINIDE] | >= 4 |
| C[C@]12CC[C@@H]3c4ccc(O)cc4CC[C@H]3[C@@H]1CC[C@@H]2OC(=O)CCC1CCCC1 [ESTRADIOL CYPIONATE] | >= 4 |
| Cn1c(=O)c2[nH]cnc2n(C)c1=O.O [THEOPHYLLINE] | < 4 |
| CCN(CC)CCOc1ccc(/C(=C(/Cl)c2ccccc2)c2ccccc2)cc1 [ENCLOMIPHENE] | >= 4 |

====

system: Hepatotoxicity; assay: FDA HLAED, liver enzyme composite activity; settings: human
quantity kind: Composite Activity - Score

Sample records with Composite Activity - Score:
| compound | Composite Activity - Score |
| --- | --- |
| CC(=O)Oc1c(C)cc(OCC(O)CNC(C)C)c(C)c1C (stereo not given) [METIPRANOLOL] | Inactive |
| Clc1ccc2c(c1)C(N1CCNCC1)=Nc1ccccc1O2 [AMOXAPINE] | Inactive |
| C[C@]12CC[C@H]3[C@@H](CCC4=CC(=O)CC[C@@]43C)[C@@H]1CC[C@@H]2O [TESTOSTERONE] | Inactive |
| CCN[C@@H]1C[C@H](N)[C@@H](O[C@H]2OC(CN)=CC[C@H]2N)[C@H](O)[C@H]1O[C@H]1OC[C@](C)(O)[C@H](NC)[C@H]1O [NETILMICIN] | Inactive |
| CC(=O)OCC(=O)[C@@]12OC3(CCCC3)O[C@@H]1C[C@H]1[C@@H]3CCC4=CC(=O)C=C[C@]4(C)[C@@]3(F)[C@@H](O)C[C@@]12C [AMCINONIDE] | Inactive |
| C[C@]12CC[C@@H]3c4ccc(OC(=O)c5ccccc5)cc4CC[C@H]3[C@@H]1CC[C@@H]2O [ESTRADIOL BENZOATE] | Inactive |

Query: Param readout = Composite Activity - Score; param system = Hepatotoxicity; param query = CCCC(=O)Nc1ccc(OCC(O)CNC(C)C)c(C(C)=O)c1 (stereo not given) [ACEBUTOLOL] ; response: value
Response: Inactive

Query: Param readout = Composite Activity - Score; param system = Hepatotoxicity; param query = CCC(=O)O[C@H]1[C@H](O[C@@H]2[C@@H](C)[C@H](O[C@H]3C[C@@](C)(OC)[C@@H](O)[C@H](C)O3)[C@@H](C)C(=O)O[C@H](CC)[C@@](C)(O)[C@H](O)[C@@H](C)C(=O)[C@H](C)C[C@@]2(C)O)O[C@H](C)C[C@@H]1N(C)C [ERYTHROMYCIN PROPIONATE] ; response: value
Response: Active
